Molecular target: T1, GLP-1R (INS1e assay) (UniProt P32301 22-463, limits assumed)
T1 sequence (looked up): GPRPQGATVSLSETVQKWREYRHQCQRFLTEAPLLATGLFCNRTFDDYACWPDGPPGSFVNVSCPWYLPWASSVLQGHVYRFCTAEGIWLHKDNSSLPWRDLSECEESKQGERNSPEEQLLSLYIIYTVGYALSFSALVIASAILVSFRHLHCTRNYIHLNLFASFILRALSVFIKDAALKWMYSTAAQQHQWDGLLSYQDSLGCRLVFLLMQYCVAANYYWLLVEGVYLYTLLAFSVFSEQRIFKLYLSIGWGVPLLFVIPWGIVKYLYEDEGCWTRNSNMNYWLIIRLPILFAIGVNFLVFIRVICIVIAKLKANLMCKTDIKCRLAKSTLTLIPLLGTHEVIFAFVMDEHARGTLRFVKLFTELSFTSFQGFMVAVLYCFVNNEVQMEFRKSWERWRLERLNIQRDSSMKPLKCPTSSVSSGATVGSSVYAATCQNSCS
Assay: cell-based or functional assay
Starred links: 1 amine or outer side, 2 acyl side, 3 side chain; linkers in the order of their positions; H or OH if unused. Non-standard residues stand in square brackets, D forms with d. Groups on a side chain read outwards from the residue. Primed or numbered codes have the meaning given here. No end group written: not given here. *: point of attachment. Dodecylbenzoate = dodecylbenzoyl lipid group; γGlu = O=C(O)[C@H](CCC(=O)[*:2])N[*:1]; Stearoyl = CCCCCCCCCCCCCCCCCC(=O)*; Palmitoyl = CCCCCCCCCCCCCCCC(=O)*; αMeF = C[C@](N)(Cc1ccccc1)C(=O)O; αMeK = C[C@](N)(CCCCN)C(=O)O; αMeS = C[C@](N)(CO)C(=O)O; PEG2′ = not defined here; Aib = CC(C)(N)C(=O)O
Please mark label 1 if the recorded INS1e assay EC50 GLP-1 R n2 is equal to or greater than 0.9 nM, and label 0 if it falls below.

Binder	Class
H[Aib]EGS[αMeF]TSDV[αMeS]S[αMeF]LEGEAA[αMeK]E[αMeF]IA[αMeF]VVK([PEG2′-Dodecylbenzoate])GG-NH2 [SEQ ID NO 179]	label 0

Hi team, for H[Aib]EGS[αMeF]TSDV[αMeS]S[αMeF]LEGEAA[αMeK]E[αMeF]IA[αMeF]VV[αMeK]GK([PEG2′-PEG2′-γGlu-Stearoyl])-NH2 [SEQ ID NO 99] , is the recorded INS1e assay EC50 GLP-1 R n2 at or above 0.9 nM?
label 1

Quick one: HXEGSFTSDVSKFLEGEAAKEFIAFVVKGG (Aib2; α-MeF6; α-MeS11; K12(ε-γE-Palmitoyl); α-MeF13; α-MeK20; α-MeF22; α-MeF25; α-MeK28; C-terminal amide) [SEQ ID NO 88]
label 0

What do you have for H[Aib]EGS[αMeF]TSDV[αMeS]S[αMeF]LEGEAA[αMeK]K([PEG2′-PEG2′-γGlu-Stearoyl])[αMeF]IA[αMeF]VV[αMeK]GG-NH2 [SEQ ID NO 108] ?
label 0

Query H[Aib]EGS[αMeF]TSDV[αMeS]S[αMeF]LEGEAAEEFIK([PEG2′-PEG2′-γGlu-Stearoyl])WVVEGG-NH2 [SEQ ID NO 66] next
label 1

Next binder: H[Aib]EGSFTSDV[αMeS]S[αMeF]LEGEAAK([PEG2′-PEG2′-γGlu-Stearoyl])E[αMeF]IA[αMeF]VV[αMeK]GG-NH2 [SEQ ID NO 45]
label 1

H[Aib]EGS[αMeF]TSDV[αMeS]S[αMeF]LEGEAAK([PEG2′-PEG2′-γGlu-Palmitoyl])E[αMeF]IA[αMeF]VV[αMeK]GG-NH2 [SEQ ID NO 109] , same question.
label 1

Provenance of the data: patent US20200079833A1
